Values from PubChem BioAssay AID2060489

# viability, T/C annotations
# System: 922993-354-T-J3-PDC complex spheroids, viability;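 also: spheroids exposed to compounds for seven days; 100% = DMSO vehicle control viability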
# Protocol notes: Anticancer human tumor 922993-354-T-J3-PDC patient-derived endometrial carcinoma cell line growth inhibition [GQUAD]
# Assay setup: second compound 0.0316 µM; first compound 0.000999 µM; stronger effect = lower value
# Excerpt: DNA G-quadruplex Stabilizer Agents in Combinations in Complex Spheroids A high-throughput screen of multi-cell type tumor spheroids was designed to identify active combinations of DNA G-quadruplex stabilizer agents and targeted small molecules. […] Compounds. […] If the clinical Cmax for an agent had not been determined, the highest concentration tested was 10 microM. […]

{"Compound": "CCc1c2c(nc3ccc(O)cc13)-c1cc3c(c(=O)n1C2)COC(=O)[C@]3(O)CC + Cc1[nH]c2ccc(F)cc2c1-c1nc2c3cccnc3c3ncccc3c2[nH]1", "Target or test system": "922993-354-T-J3-PDC complex spheroids, viability", "viability, T/C": "91.8%"}
{"Compound": "Cn1ncnc1[C@H]1c2n[nH]c(=O)c3cc(F)cc(c23)N[C@@H]1c1ccc(F)cc1 + Cc1[nH]c2ccc(F)cc2c1-c1nc2c3cccnc3c3ncccc3c2[nH]1", "Target or test system": "922993-354-T-J3-PDC complex spheroids, viability", "viability, T/C": "102%"}
{"Compound": "CC[C@@]1(O)C(=O)OCc2c1cc1n(c2=O)Cc2cc3c(CN(C)C)c(O)ccc3nc2-1 + CN(C)c1ccc(Nc2c3ccc(NC(=O)CCN4CCCC4)cc3nc3cc(NC(=O)CCN4CCCC4)ccc23)cc1", "Target or test system": "922993-354-T-J3-PDC complex spheroids, viability", "viability, T/C": "100%"}
